# PROTOCOL DESCRIPTION: Neutral red uptake (NRU) assay, normal cells
# REPORTED CONDITIONS: human
READOUT TYPE: IC50 at 48 h (µM)
# unit: µM | format: bare number

Q: May I ask what IC50 at 48 h has been recorded for O=c1c(-c2ccc(O)cc2)coc2cc(O)cc(O)c12 [Compound 37, genistein] ?
A: 57.8

Q: Same question for COc1cc(-c2oc3cc(O)cc(O)c3c(=O)c2O)ccc1O [Compound 26, 3′-methoxyquercetin] please.
A: 78.7

###

# System: A375 melanoma cells
# PROTOCOL DESCRIPTION: [3H]-thymidine incorporation (DNA biosynthesis), A375
# Format: cell-based, human
# REPORTED CONDITIONS: A375, 48 h; read-out: IC50, effect on DNA biosynthesis ([3H]-thymidine incorporation)
Task for the reader: assign each of the following compounds its reported pIC50.
Answer as the number alone; pIC50 is minus log10 of concentration in mol/L.

Q: May I ask what pIC50 has been recorded for N.N.[Cl][Pt][Cl] [cPt, cisplatin, reference compound] ?
A: 5.41

Q: Same question for O=c1cc(-c2ccccc2)oc2c(O)c(O)ccc12 [Compound 16, 7,8-dihydroxyflavone] please.
A: 4.53

Q: Same question for O=c1c(-c2ccc(O)cc2)coc2cc(O)cc(O)c12 please.
A: 4.55

Q: Same question for O=c1cc(-c2ccccc2)oc2ccc(O)c(O)c12 [Compound 15, 5,6-dihydroxyflavone] please.
A: 4.49

Q: Same question for O=c1cc(-c2ccc(O)c(O)c2)oc2cc(O)cc(O)c12 please.
A: 4.41

Q: Same question for O=c1cc(-c2ccc(O)cc2)oc2cc(O)cc(O)c12 please.
A: 4.54

###

Task for the reader: assign each of the following molecules its reported IC50 at 72 h.
# PROTOCOL DESCRIPTION: Neutral red uptake (NRU) assay, normal cells
# REPORTED CONDITIONS: human, human skin fibroblasts (CCD25Sk)

Q: May I ask what IC50 at 72 h has been recorded for O=C(O)C1OC(Oc2c(-c3ccc(O)c(O)c3)oc3cc(O)cc(O)c3c2=O)C(O)C(O)C1O (stereo not drawn) [Compound 27, quercetin 3-O-glucuronide] ?
A: > 200 µM

Q: Same question for O=c1c(O)c(-c2ccc(O)c(O)c2)oc2cc(O)cc(O)c12 please.
A: 36.4 µM

Q: Same question for CC1OC(OCC2OC(Oc3c(-c4ccc(O)c(O)c4)oc4cc(OC5OC(CO)C(O)C(O)C5O)cc(O)c4c3=O)C(O)C(O)C2O)C(O)C(O)C1O (stereo not drawn) [Compound 29, quercetin 3-O-rutinoside-7-O-glucoside] please.
A: > 200 µM

###

# Test system: C32 melanoma cells
# PROTOCOL DESCRIPTION: Neutral red uptake (NRU) assay, C32
# REPORTED CONDITIONS: read-out: IC50, cytotoxic activity, NRU assay; C32, 24 h
Task for the reader: assign each of the following compounds its reported IC50.

Q: Query for C32 melanoma cells: what IC50 does the record show for COc1ccc(-c2cc(=O)c3c(O)cc(O)c([C@@H]4OC[C@@H](O)[C@H](O)[C@H]4O[C@@H]4O[C@H](CO)[C@@H](O)[C@H](O)[C@H]4O)c3o2)cc1O [Compound 11] ?
A: > 200 µM

Q: Same question for CC(=O)Oc1ccc(-c2cc(=O)c3c(O)cc(O)c([C@@H]4OC[C@@H](O)[C@H](O)[C@H]4O[C@@H]4O[C@H](CO)[C@@H](O)[C@H](O)[C@H]4O)c3o2)cc1O [Compound 10] please.
A: > 200 µM

###

# PROTOCOL DESCRIPTION: in vitro
# REPORTED CONDITIONS: human
Task for the reader: assign each of the following compounds its reported IC50 at 72 h.

Q: May I ask what IC50 at 72 h has been recorded for COc1ccc([C@@H]2CC(=O)c3c(O)cc(O)cc3O2)cc1O ?
A: > 200 µM

Q: Same question for O=C(O)C1OC(Oc2c(-c3ccc(O)cc3)oc3cc(O)cc(O)c3c2=O)C(O)C(O)C1O (centres unmarked) [Compound 21, kaempferol 3-O-glucuronide] please.
A: > 200 µM

Q: Same question for O=C(O)C1OC(Oc2cc(O)c3c(=O)cc(-c4ccc(O)c(O)c4)oc3c2)C(O)C(O)C1O (centres unmarked) [Compound 8, luteolin 7-O-glucuronide] please.
A: > 200 µM

Q: Same question for O=c1cc(-c2ccc(O)cc2)oc2cc(O)cc(O)c12 please.
A: 100 to 200 µM

Q: Same question for O=c1c(O)c(-c2cc(O)c(O)c(O)c2)oc2cc(O)cc(O)c12 please.
A: > 200 µM

Q: Same question for O=c1cc(-c2ccccc2)oc2cc(O)cc(O)c12 please.
A: 71.2 µM

Q: Same question for O=c1cc(-c2ccc(O)c(O)c2)oc2cc(OC3OC(CO)C(O)C(O)C3O)cc(O)c12 (centres unmarked) [Compound 7, luteolin 7-O-glucoside] please.
A: > 200 µM

Q: Same question for COc1ccc(-c2oc3c(CC=C(C)C)c(O[C@@H]4O[C@H](CO)[C@@H](O)[C@H](O)[C@H]4O)cc(O)c3c(=O)c2O[C@@H]2O[C@@H](C)[C@H](O)[C@@H](O)[C@H]2O)cc1 please.
A: > 200 µM

###

# PROTOCOL DESCRIPTION: MTT cell viability assay, normal cells;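 also: fibroblasts served as non-cancer comparison line for selectivity versus melanoma cells, MTT reduction read as absorbance at 570 nm after 2 h dye exposure, compounds in ≤0.1% DMSO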
# REPORTED CONDITIONS: human, human skin fibroblasts (CCD25Sk)
READOUT TYPE: IC50 at 48 h

Q: May I ask what IC50 at 48 h has been recorded for C[C@@H]1O[C@@H](OC[C@H]2O[C@@H](Oc3c(-c4ccc(O)c(O)c4)oc4cc(O)cc(O)c4c3=O)[C@H](O)[C@@H](O)[C@@H]2O)[C@H](O)[C@H](O)[C@H]1O [Compound 28, quercetin 3-O-rutinoside] ?
A: > 200 µM

Q: Same question for COc1ccc(C2CC(=O)c3c(O)cc(OC4OC(COC5OC(C)C(O)C(O)C5O)C(O)C(O)C4O)cc3O2)cc1O (centres unmarked) [Compound 34, hesperetin 7-O-rutinoside] please.
A: > 200 µM

Q: Same question for COc1cc(O)c2c(=O)c(O)c(-c3ccc(O)c(O)c3)oc2c1 please.
A: 45.3 µM

Q: Same question for COc1ccc(C2CC(=O)c3c(O)cc(OC4OC(CO)C(O)C(O)C4OC4OC(C)C(O)C(O)C4O)cc3O2)cc1O (centres unmarked) [Compound 35, hesperetin 7-O-neohesperidoside] please.
A: > 200 µM

Q: Same question for O=c1cc(-c2ccccc2)oc2c(O)c(O)ccc12 [Compound 16, 7,8-dihydroxyflavone] please.
A: 100 to 200 µM

Q: Same question for O=C(O)C1OC(Oc2cc(O)c3c(=O)cc(-c4ccc(O)cc4)oc3c2)C(O)C(O)C1O (centres unmarked) [Compound 4, apigenin 7-O-glucuronide] please.
A: > 200 µM

Q: Same question for O=C(O)C1OC(Oc2c(-c3ccc(O)c(O)c3)oc3cc(O)cc(O)c3c2=O)C(O)C(O)C1O (centres unmarked) [Compound 27, quercetin 3-O-glucuronide] please.
A: > 200 µM

Q: Same question for O=c1cc(-c2ccc(O)c(O)c2)oc2cc(O)cc(O)c12 please.
A: 69.7 µM

###

# System: human skin fibroblasts (CCD25Sk)
# PROTOCOL DESCRIPTION: Neutral red uptake (NRU) assay, normal cells
# REPORTED CONDITIONS: read-out: IC50, cytotoxic activity, NRU assay; Normal cells (fibroblasts), 72 h
READOUT TYPE: IC50

Q: Query for human skin fibroblasts (CCD25Sk): what IC50 does the record show for COc1ccc(-c2cc(=O)c3c(O)cc(O)c([C@@H]4OC[C@@H](O)[C@H](O)[C@H]4O[C@@H]4O[C@H](CO)[C@@H](O)[C@H](O)[C@H]4O)c3o2)cc1O [Compound 11] ?
A: > 200 µM

Q: Same question for CC(=O)Oc1ccc(-c2cc(=O)c3c(O)cc(O)c([C@@H]4OC[C@@H](O)[C@H](O)[C@H]4O[C@@H]4O[C@H](CO)[C@@H](O)[C@H](O)[C@H]4O)c3o2)cc1O [Compound 10] please.
A: > 200 µM

###

# Tested on: C32 melanoma cells
# PROTOCOL DESCRIPTION: Neutral red uptake (NRU) assay, C32
# REPORTED CONDITIONS: Homo sapiens, C32, 48 h, read-out: IC50, cytotoxic activity, NRU assay, C32, 48 h
pIC50: −log10 of the molar value.
Task for the reader: assign each of the following compounds its reported pIC50.

Q: May I ask what pIC50 has been recorded for O=c1cc(-c2ccc(O)cc2)oc2cc(OC3OC(CO)C(O)C(O)C3O)cc(O)c12 (stereo not shown) [Compound 3, apigenin 7-O-glucoside] ?
A: < 3.70

Q: Same question for O=c1c(O)c(-c2cc(O)c(O)c(O)c2)oc2cc(O)cc(O)c12 [Compound 30, myricetin] please.
A: < 3.70

Q: Same question for COc1cc(O)c2c(=O)c(O)c(-c3ccc(O)c(O)c3)oc2c1 [Compound 25, 7-methoxyquercetin] please.
A: 4.26

Q: Same question for O=c1cc(-c2ccccc2)oc2c(O)c(O)ccc12 [Compound 16, 7,8-dihydroxyflavone] please.
A: 4.70

Q: Same question for O=c1c(O)c(-c2cc(O)c(O)c(O)c2)oc2cc(O)ccc12 [Compound 32, robinetin] please.
A: < 3.70

Q: Same question for O=c1cc(-c2ccc(O)cc2)oc2c([C@@H]3O[C@H](CO)[C@@H](O)[C@H](O)[C@H]3O)c(O)cc(O)c12 [Compound 2, apigenin 8-C-glucoside] please.
A: < 3.70

Q: Same question for O=c1c(O[C@@H]2O[C@H](CO)[C@@H](O)[C@H](O)[C@H]2O)c(-c2ccc(O)cc2)oc2cc(O)cc(O)c12 [Compound 20, kaempferol 3-O-glucoside] please.
A: < 3.70
